All figures here come from patent US8575156B2.

Catalogue of IC50 values
molecular target: 11β-HSD1 (Homo sapiens); experiment: biochemical; settings: IC50 Range, Biological Test Example 1; microsomes from CHO cells overexpressing human 11β-HSD1
Sequence (P28845 whole entry): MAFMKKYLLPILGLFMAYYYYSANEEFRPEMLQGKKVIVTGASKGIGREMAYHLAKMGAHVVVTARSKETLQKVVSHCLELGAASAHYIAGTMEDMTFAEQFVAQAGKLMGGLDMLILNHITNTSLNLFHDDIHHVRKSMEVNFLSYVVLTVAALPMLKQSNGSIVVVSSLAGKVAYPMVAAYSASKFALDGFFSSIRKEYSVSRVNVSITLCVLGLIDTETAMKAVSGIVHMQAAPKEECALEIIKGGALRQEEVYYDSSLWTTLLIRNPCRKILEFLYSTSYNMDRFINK

The examples below pair each entry with its known result.
compound: Cc1nnc(CC[C@]2(c3ccccc3)CCN([C@@H](C)c3ccc(Br)cc3)C(=O)O2)o1 [EXAMPLE 595]
IC50: < 100 nM
--
compound: C[C@@H](C1CCCCC1)N1CC[C@](CCCO)(c2ccc(F)cc2)OC1=O [EXAMPLE 122]
IC50: < 100 nM
--
compound: C[C@@H](c1ccc(Br)cc1)N1CC[C@](CCN(C)S(C)(=O)=O)(c2ccccc2)OC1=O [EXAMPLE 529]
IC50: < 100 nM
--
compound: CC(O)C[C@]1(c2ccccc2)CCN([C@@H](C)c2ccc(-c3ccc(F)cc3F)cc2)C(=O)O1 (stereo partly drawn) [EXAMPLE 170]
IC50: < 100 nM
--
compound: C[C@@H](c1ccc(Br)cc1F)N1CC[C@](CCCO)(c2ccc(F)cc2)OC1=O [EXAMPLE 581]
IC50: < 100 nM
--
compound: CC(C)(C)OC(=O)N1CCC(N2CCC(CCCO)(c3ccccc3)OC2=O)C1 (single isomer, unassigned) [EXAMPLE 208 Isomer 1]
IC50: < 100 nM

Challenge: Please report the recorded IC50 for CC(O)C[C@]1(c2ccccc2)CCN([C@@H](C)c2ccc(-c3ccc(F)cc3)cc2)C(=O)O1 (stereo partly drawn) [EXAMPLE 224] .
Response given: < 100 nM

Challenge: Please report the recorded IC50 for CC[C@@H](c1ccc(Br)cc1)N1CC[C@](CCC(N)=O)(c2ccccc2)OC1=O [EXAMPLE 398] .
Response given: < 100 nM

Challenge: Please report the recorded IC50 for C=CC[C@]1(c2ccc(F)cc2)CCN([C@@H](C)c2ccc(C(=O)NC)cc2)C(=O)O1 [EXAMPLE 155] .
Response given: 100 to 1000 nM

Challenge: Please report the recorded IC50 for C[C@@H](c1ccc(F)cc1)N1CC[C@](CCO)(c2ccccc2)OC1=O [EXAMPLE 412] .
Response given: < 100 nM

Challenge: Please report the recorded IC50 for C[C@@H](c1ccc(-c2ccc(F)cc2F)cc1)N1CC[C@](CC(O)CO)(c2ccc(F)cc2)OC1=O (single isomer, unassigned) [EXAMPLE 52 Isomer 1] .
Response given: < 100 nM

Challenge: Please report the recorded IC50 for CC(C)C1(CCC(N)=O)CCN([C@@H](C)c2ccc(Cl)cc2)C(=O)O1 (single isomer, unassigned) [EXAMPLE 334 Isomer 2] .
Response given: > 100 nM

Challenge: Please report the recorded IC50 for C[C@@H](c1ccc(Br)cc1)N1CC[C@](CC(=O)CO)(c2ccc(F)cc2)OC1=O [EXAMPLE 527] .
Response given: < 100 nM

Challenge: Please report the recorded IC50 for C[C@@H](c1ccccc1F)N1CC[C@](CCCO)(c2ccc(F)cc2)OC1=O [EXAMPLE 284] .
Response given: < 100 nM

Challenge: Please report the recorded IC50 for CC1(c2ccccc2)CCN(c2nc(-c3ccccc3)cs2)C(=O)O1 (stereo not drawn) [EXAMPLE 121] .
Response given: 100 to 1000 nM

Challenge: Please report the recorded IC50 for COc1ccc([C@H](C)N2CC[C@@](C)(c3ccc(CO)cc3)OC2=O)cc1 (single isomer, unassigned) [EXAMPLE 429 Isomer 2] .
Response given: > 100 nM

Challenge: Please report the recorded IC50 for C[C@@H](c1ccc(-c2ccc(F)cc2F)cc1)N1CC[C@](CCC(N)=O)(c2ccccc2)OC1=O [EXAMPLE 250] .
Response given: < 100 nM

Challenge: Please report the recorded IC50 for COc1ccc([C@H](C)N2CCC(CCCO)(C(C)C)OC2=O)cc1 (single isomer, unassigned) [EXAMPLE 332 Isomer 2] .
Response given: > 100 nM

Challenge: Please report the recorded IC50 for O=C1OC(CCO)(c2ccccc2)CCN1c1ccc(F)c(-c2ccc(F)cc2Cl)c1 (stereo not drawn) [EXAMPLE 101] .
Response given: < 100 nM

Challenge: Please report the recorded IC50 for C=CC[C@]1(c2ccc(F)cc2)CCN([C@@H](C)c2ccc(-c3nnc(C)o3)cc2)C(=O)O1 [EXAMPLE 215] .
Response given: < 100 nM

Challenge: Please report the recorded IC50 for CC(O)C[C@]1(c2ccc(F)cc2)CCN([C@@H](C)c2ccc(C(F)(F)F)cc2)C(=O)O1 (single isomer, unassigned) [EXAMPLE 388 Isomer 1] .
Response given: < 100 nM

Challenge: Please report the recorded IC50 for C[C@@H](c1cccc(O)c1)N1CCC(C)(c2ccccc2)OC1=O (stereo partly drawn) [EXAMPLE 89] .
Response given: < 100 nM

Challenge: Please report the recorded IC50 for C[C@@H](c1ccc(Cl)cc1F)N1CC[C@](CCCNS(C)(=O)=O)(c2ccc(F)cc2)OC1=O [EXAMPLE 602] .
Response given: < 100 nM

Challenge: Please report the recorded IC50 for Cc1ccccc1C1(C)CCN([C@@H](C)c2ccccc2)C(=O)O1 (single isomer, unassigned) [EXAMPLE 86 Isomer 1] .
Response given: 100 to 1000 nM

Challenge: Please report the recorded IC50 for C=CCC1(c2ccc(F)cc2)CCN([C@@H](C)c2ccc(OC)cc2)C(=O)O1 (single isomer, unassigned) [EXAMPLE 193 Isomer 1] .
Response given: < 100 nM
